target: prostaglandin cyclooxygenase (Bos taurus, UniProt O62664)
Sequence (O62664 25-600): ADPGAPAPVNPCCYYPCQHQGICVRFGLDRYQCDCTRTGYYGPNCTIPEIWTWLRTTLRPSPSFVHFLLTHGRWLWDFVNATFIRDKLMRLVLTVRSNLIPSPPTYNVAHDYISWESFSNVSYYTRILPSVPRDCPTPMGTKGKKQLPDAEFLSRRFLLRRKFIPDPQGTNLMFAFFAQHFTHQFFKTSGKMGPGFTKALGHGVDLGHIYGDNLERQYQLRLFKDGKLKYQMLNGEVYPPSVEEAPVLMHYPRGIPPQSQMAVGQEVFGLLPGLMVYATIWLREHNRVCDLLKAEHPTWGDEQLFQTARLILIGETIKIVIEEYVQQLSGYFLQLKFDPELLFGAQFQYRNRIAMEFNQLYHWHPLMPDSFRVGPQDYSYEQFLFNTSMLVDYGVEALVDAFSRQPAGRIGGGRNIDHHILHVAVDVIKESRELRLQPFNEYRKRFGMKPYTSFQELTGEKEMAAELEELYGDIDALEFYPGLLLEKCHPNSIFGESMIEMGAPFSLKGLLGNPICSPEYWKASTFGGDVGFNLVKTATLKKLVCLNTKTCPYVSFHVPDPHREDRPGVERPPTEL
Property: IC50

Ask: Write down the reported IC50 of O=C(O)CCCCc1cn(-c2cccnc2)c2ccccc12 , test system: prostaglandin cyclooxygenase (Bos taurus, UniProt O62664).
Result: > 1 mM

---

target: thromboxane synthetase (Homo sapiens)
Sequence (P24557 whole entry): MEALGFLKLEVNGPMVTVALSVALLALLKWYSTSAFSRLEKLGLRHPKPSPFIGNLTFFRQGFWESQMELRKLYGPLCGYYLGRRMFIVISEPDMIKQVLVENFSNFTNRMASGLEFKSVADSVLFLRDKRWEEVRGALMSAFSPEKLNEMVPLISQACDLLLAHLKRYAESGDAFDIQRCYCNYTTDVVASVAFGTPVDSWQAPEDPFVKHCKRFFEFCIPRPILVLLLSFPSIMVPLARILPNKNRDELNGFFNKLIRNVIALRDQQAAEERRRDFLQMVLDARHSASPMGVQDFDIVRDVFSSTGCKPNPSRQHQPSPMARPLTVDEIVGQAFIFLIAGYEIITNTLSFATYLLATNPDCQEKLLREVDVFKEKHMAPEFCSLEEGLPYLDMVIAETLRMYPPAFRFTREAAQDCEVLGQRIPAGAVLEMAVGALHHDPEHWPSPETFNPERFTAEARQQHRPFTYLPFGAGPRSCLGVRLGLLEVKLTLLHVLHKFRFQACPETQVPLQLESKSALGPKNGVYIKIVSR
Property: IC50

Ask: I am curious: what IC50 value has been reported for O=C(O)CCCC(=O)c1cn(-c2cccnc2)c2ccccc12 ?
Result: ~400 nM
